System: Shigella boydii
protocol_summary: Expected efficacy of antibiotic agents
condition_set: expected efficacy against Shigella boydii
measured_quantity: Efficacy

Consider the worked cases shown below.
Could you share which Efficacy value was measured for CO/N=C(\C(=O)N[C@@H]1C(=O)N2C(C(=O)O)=C(CSc3nc(=O)c(=O)[nH]n3C)CS[C@H]12)c1csc(N)n1 [Ceftriaxone, ceftriaxone] ?
yes

Form field: reported Efficacy of NC[C@H]1O[C@H](O[C@H]2[C@H](O)[C@@H](O[C@H]3O[C@H](CO)[C@@H](O)[C@H](N)[C@H]3O)[C@H](N)C[C@@H]2N)[C@H](N)C[C@@H]1O [Tobramycin, tobramycin]
yes

Please give the measured Efficacy for this compound: O=C(O)c1cn(C2CC2)c2cc(N3CCNCC3)c(F)cc2c1=O [Ciprofloxacin, ciprofloxacin]
yes

Which value of Efficacy has been reported for CN[C@H](CC(C)C)C(=O)N[C@H]1C(=O)N[C@@H](CC(N)=O)C(=O)N[C@H]2C(=O)N[C@H]3C(=O)N[C@H](C(=O)N[C@H](C(=O)O)c4cc(O)cc(O)c4-c4cc3ccc4O)[C@H](O)c3ccc(c(Cl)c3)Oc3cc2cc(c3O[C@@H]2O[C@H](CO)[C@@H](O)[C@H](O)[C@H]2O[C@H]2C[C@](C)(N)[C@H](O)[C@H](C)O2)Oc2ccc(cc2Cl)[C@H]1O [Vancomycin] in the records?
no

New cases:
Query (compound): C/C(=C\C(=O)OCCCCCCCCC(=O)O)C[C@@H]1OC[C@H](C[C@@H]2O[C@H]2[C@@H](C)[C@H](C)O)[C@@H](O)[C@H]1O [Bactroban] ; field requested: Efficacy
no

* * *

System: Salmonella typhi
protocol_summary: Expected efficacy of antibiotic agents
condition_set: expected efficacy against Salmonella typhi
measured_quantity: Efficacy

Name the recorded Efficacy for O=C(O)c1cn(C2CC2)c2cc(N3CCNCC3)c(F)cc2c1=O [Ciprofloxacin, ciprofloxacin] .
yes

Could you tell me which Efficacy is on file for CN[C@H](CC(C)C)C(=O)N[C@H]1C(=O)N[C@@H](CC(N)=O)C(=O)N[C@H]2C(=O)N[C@H]3C(=O)N[C@H](C(=O)N[C@H](C(=O)O)c4cc(O)cc(O)c4-c4cc3ccc4O)[C@H](O)c3ccc(c(Cl)c3)Oc3cc2cc(c3O[C@@H]2O[C@H](CO)[C@@H](O)[C@H](O)[C@H]2O[C@H]2C[C@](C)(N)[C@H](O)[C@H](C)O2)Oc2ccc(cc2Cl)[C@H]1O [Vancomycin] ?
no

// query Efficacy value for entry CO/N=C(\C(=O)N[C@@H]1C(=O)N2C(C(=O)O)=C(CSc3nc(=O)c(=O)[nH]n3C)CS[C@H]12)c1csc(N)n1 [Ceftriaxone, ceftriaxone]
yes

Which measured Efficacy value corresponds to C/C(=C\C(=O)OCCCCCCCCC(=O)O)C[C@@H]1OC[C@H](C[C@@H]2O[C@H]2[C@@H](C)[C@H](C)O)[C@@H](O)[C@H]1O [Bactroban] ?
no

* * *

System: Enterobacter cloacae
protocol_summary: Expected efficacy of antibiotic agents
condition_set: expected efficacy against Enterobacter cloacae
measured_quantity: Efficacy

Consider the worked cases shown below.
Returns the measured Efficacy for the input compound. Input: CO/N=C(\C(=O)N[C@@H]1C(=O)N2C(C(=O)O)=C(CSc3nc(=O)c(=O)[nH]n3C)CS[C@H]12)c1csc(N)n1 [Ceftriaxone, ceftriaxone]
yes

Look up Efficacy: NC[C@H]1O[C@H](O[C@H]2[C@H](O)[C@@H](O[C@H]3O[C@H](CO)[C@@H](O)[C@H](N)[C@H]3O)[C@H](N)C[C@@H]2N)[C@H](N)C[C@@H]1O [Tobramycin, tobramycin]
yes

Recorded Efficacy for CC[C@H]1OC(=O)[C@H](C)[C@@H](O[C@H]2C[C@@](C)(OC)[C@@H](O)[C@H](C)O2)[C@H](C)[C@@H](O[C@@H]2O[C@H](C)C[C@H](N(C)C)[C@H]2O)[C@](C)(O)C[C@@H](C)CN(C)[C@H](C)[C@@H](O)[C@]1(C)O [Azithromycin] , please?
no

Using the record for C/C(=C\C(=O)OCCCCCCCCC(=O)O)C[C@@H]1OC[C@H](C[C@@H]2O[C@H]2[C@@H](C)[C@H](C)O)[C@@H](O)[C@H]1O [Bactroban] , report its Efficacy.
no

Lab note: next compound to report on.
For CN[C@H](CC(C)C)C(=O)N[C@H]1C(=O)N[C@@H](CC(N)=O)C(=O)N[C@H]2C(=O)N[C@H]3C(=O)N[C@H](C(=O)N[C@H](C(=O)O)c4cc(O)cc(O)c4-c4cc3ccc4O)[C@H](O)c3ccc(c(Cl)c3)Oc3cc2cc(c3O[C@@H]2O[C@H](CO)[C@@H](O)[C@H](O)[C@H]2O[C@H]2C[C@](C)(N)[C@H](O)[C@H](C)O2)Oc2ccc(cc2Cl)[C@H]1O [Vancomycin] , what is its reported Efficacy?
no
